Molecular target: T1, human OX40-FC-biotin (human OX40 recombinant protein with Fc tag, Acro Biosystems OX40-H5255, labeled with … (human, UniProt P43489 29-216, labeled with biotin (site not stated)))
T1 construct: range 29-216; Bought (Acro Biosystems OX40-H5255; printed once as OXO-H5255), expressed in HEK293; also called human Bio-OX40-FC; not shown: Fc tag of the bought protein
T1 sequence (looked up): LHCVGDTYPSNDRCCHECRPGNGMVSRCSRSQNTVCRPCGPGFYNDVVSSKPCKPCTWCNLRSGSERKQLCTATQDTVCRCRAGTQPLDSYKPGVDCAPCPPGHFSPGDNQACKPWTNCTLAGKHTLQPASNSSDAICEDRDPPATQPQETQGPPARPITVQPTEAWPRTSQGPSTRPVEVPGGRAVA
Test: capture ELISA, biotin-OX40-Fc

BINDER: humanized antibody hu4B5-V19 (antibody, human IgG1, V domains shown, hu4B5 VH1 + hu4B5 VL3; human IgG1 / human Kappa constant regions) VH: QVQLQESGPGLVKPSETLSLTCTVSGFSLTSYGLHWIRQPPGKGLEWIGVIWSGGSTDYNAAFISRVTISKEDSKNQFSLKLSSVTAADTAVYYCAREEYDVWGQGTTVTVSS VL: DIQMTQSPSSLSASVGDRVTITCRASQDISNYLNWYQQKPGGVPKLLIYYTSRLHSGVPSRFSGSGSGTDYTLTISSLQQEDVATYYCQQGNTLPWTFGGGTKVEIK
binding result: binds
//
BINDER: humanized antibody hu4B5-V6 (antibody, human IgG1, V domains shown, hu4B5 VH0 + hu4B5 VL1; human IgG1 / human Kappa constant regions) VH: QVQLQESGPGLVKPSETLSLTCTVSGFSLTSYGLHWIRQPPGKGLEWIGVIWSGGSTDYNAAFISRVTISVDTSKNQFSLKLSSVTAADTAVYYCAREEYDVWGQGTTVTVSS VL: DIQMTQSPSSLSASVGDRVTITCRASQDISNYLNWYQQKPGKVPKLLIYYTSRLHSGVPSRFSGSGSGTDYTLTISSLQPEDVATYYCQQGNTLPWTFGGGTKVEIK
binding result: binds
//
BINDER: humanized antibody hu4B5-V15 (antibody, human IgG1, V domains shown, hu4B5 VH0 + hu4B5 VL2; human IgG1 / human Kappa constant regions) VH: QVQLQESGPGLVKPSETLSLTCTVSGFSLTSYGLHWIRQPPGKGLEWIGVIWSGGSTDYNAAFISRVTISVDTSKNQFSLKLSSVTAADTAVYYCAREEYDVWGQGTTVTVSS VL: DIQMTQSPSSLSASVGDRVTITCRASQDISNYLNWYQQKPGGVPKLLIYYTSRLHSGVPSRFSGSGSGTDYTLTISSLQPEDVATYYCQQGNTLPWTFGGGTKVEIK
binding result: binds
